# experiment.summary: Plasma PK in the rat after oral dosing (observed)
# Assay type: in vivo, male Wistar rats
# conditions: male, Wistar, oral 8 mg/kg, read-out: AUC0-t Observed
measured.property: AUC(0-t) (ng·h/mL)
Your answer is read as ng·h/mL, so omit the unit and give the number.

Input: What measured AUC(0-t) goes with CCCCC1=CCC[C@@]2(C)CC[C@@H]3C[C@]12OC3(C)C [buagafuran] ?
Output: 14.2

====

# experiment.summary: Plasma protein binding by equilibrium dialysis, human plasma
# Format: in vitro ADME
# conditions: human, plasma, 0.5–2 μg/mL, equilibrium dialysis; read-out: Fup human (unbound fraction in human plasma)
measured.property: fraction unbound at 60 h
// no unit, no text: just the number

Input: What measured fraction unbound at 60 h goes with "CCCCC1=CCC[C@@]2(C)CC[C@@H]3C[C@]12OC3(C)C" ?
Output: 0.04

====

# experiment.summary: Clinical plasma PK in healthy volunteers after oral dosing (observed)
# Type: in vivo
# conditions: male, human, po, 30 mg, oral single dosing 30 mg
measured.property: Cmax
State the result as a value with its unit after it.

Input: What measured Cmax goes with "CCCCC1=CCC[C@@]2(C)CC[C@@H]3C[C@]12OC3(C)C" ?
Output: 19.5 ng/mL

====

# experiment.summary: Clinical plasma PK in healthy volunteers after oral dosing (observed)
# Assay type: in vivo
# conditions: male, human, po, oral 30–120 mg, read-out: time to peak plasma concentration (Tmax)
measured.property: Tmax

Input: What measured Tmax goes with "CCCCC1=CCC[C@@]2(C)CC[C@@H]3C[C@]12OC3(C)C" ?
Output: 0.5 to 2 h

====

# experiment.summary: Plasma PK in the rat after oral dosing (observed)
# Type: in vivo, male Wistar rats
# conditions: male, Wistar, oral 4 mg/kg, read-out: AUC0-t Observed
measured.property: AUC(0-t)

Input: What measured AUC(0-t) goes with "CCCCC1=CCC[C@@]2(C)CC[C@@H]3C[C@]12OC3(C)C" ?
Output: 6.69 ng·h/mL

====

# experiment.summary: Clinical plasma PK in healthy volunteers after oral dosing (observed)
# Assay type: in vivo
# conditions: male, human, oral, 60 mg, multiple dosing (60 mg once daily, 7 days)/last dosing, read-out: MRT(0-∞) Observed
measured.property: MRT inf (h)
Your answer is read as h, so omit the unit and give the number.

Input: What measured MRT inf goes with "CCCCC1=CCC[C@@]2(C)CC[C@@H]3C[C@]12OC3(C)C" ?
Output: 20.9

====

# experiment.summary: Clinical plasma PK in healthy volunteers after oral dosing (observed)
# Type: in vivo
# conditions: male, human, po, 120 mg, oral single dosing 120 mg
measured.property: Cmax (ng/mL)
Your answer is read as ng/mL, so omit the unit and give the number.

Input: What measured Cmax goes with "CCCCC1=CCC[C@@]2(C)CC[C@@H]3C[C@]12OC3(C)C" ?
Output: 81.6

====

# experiment.summary: Clinical plasma PK in healthy volunteers after oral dosing (observed)
# Type: in vivo
# conditions: male, human, po, 60 mg, oral single dosing 60 mg, read-out: MRT(0-∞) Observed
measured.property: MRT inf (h)
Your answer is read as h, so omit the unit and give the number.

Input: What measured MRT inf goes with CCCCC1=CCC[C@@]2(C)CC[C@@H]3C[C@]12OC3(C)C [buagafuran] ?
Output: 4.87
